# System: HO-1-N-1 (Oral Cavity Carcinoma)
# procedure.text: Bliss excess, mean over the matrix (fraction); higher = more synergy
measurement.label: Bliss excess
Lab note: record the figure alone, no unit after it.

Q: Please give the measured Bliss excess for this compound: CC1(C)CCC(CN2CCN(c3ccc(C(=O)NS(=O)(=O)c4ccc(NCC5CCOCC5)c([N+](=O)[O-])c4)c(Oc4cnc5[nH]ccc5c4)c3)CC2)=C(c2ccc(Cl)cc2)C1 [Venetoclax] + CCN(CCO)CCCOc1ccc2c(Nc3cc(CC(=O)Nc4cccc(F)c4)[nH]n3)ncnc2c1 [AZD2811] (first compound max 1 µM, 7x7, partner max 1 µM)
A: -0.032

Q: Please give the measured Bliss excess for this compound: Cc1cc2ncnn2cc1Nc1ncc2c(n1)n(C1CCOCC1)c(=O)n2C [AZD7648] + C[C@@H]1COCCN1C2=NC(=NC(=C2)C3(CC3)[S@](=N)(=O)C)C4=C5C=CNC5=NC=C4 [AZD6738] (first compound max 10 µM, 7x7, partner max 10 µM)
A: 0.0001

Q: Please give the measured Bliss excess for this compound: N#Cc1cnc(Nc2cc(NC[C@H]3CNCCO3)c(C(F)(F)F)cn2)cn1 [SRA737] + O=c1[nH]cc(F)c(=O)[nH]1 [5-Fluorouracil] (first compound max 10 µM, 7x7, partner max 20 µM)
A: 0.0623

Q: Please give the measured Bliss excess for this compound: C[C@@H](Nc1cc(F)cc(F)c1)c1cc(C(=O)N(C)C)cc2c(=O)cc(N3CCOCC3)oc12 [AZD8186] + C1CN(CCC1(C(=O)N[C@@H](CCO)C2=CC=C(C=C2)Cl)N)C3=NC=NC4=C3C=CN4 [AZD5363] (first compound max 10 µM, 7x7, partner max 10 µM)
A: 0.0627

---

# Tested on: LS-180 (Colorectal Carcinoma)
# procedure.text: combination Emax (second highest fraction inhibited in the dose matrix, 72 h); higher = more inhibition; extreme values may be limits of the assay
measurement.label: combination Emax
Lab note: record the figure alone, no unit after it.

Q: Please give the measured combination Emax for this molecule: NC1(C(=O)N[C@@H](CCO)c2ccc(Cl)cc2)CCN(c2ncnc3[nH]ccc23)CC1 [Capivasertib] + C[C@@H]1COCCN1C2=NC(=NC(=C2)C3(CC3)[S@](=N)(=O)C)C4=C5C=CNC5=NC=C4 [AZD6738] (first compound max 10 µM, 7x7, partner max 10 µM)
A: 0.825

Q: Please give the measured combination Emax for this molecule: COc1cc2ncnc(Nc3ccc(F)c(Cl)c3)c2cc1OCCCN1CCOCC1 [Gefitinib] + CC(C)n1c(=O)n(C)c2cnc3cc(F)c(-c4ccc(OCCCN5CCCCC5)nc4)cc3c21 [AZD1390] (first compound max 10 µM, 7x7, partner max 0.3 µM)
A: 0.292

---

# Tested on: TE-15 (Esophageal Squamous Cell Carcinoma)
# procedure.text: Bliss excess, mean over the matrix (fraction); higher = more synergy
measurement.label: Bliss excess
Lab note: record the figure alone, no unit after it.

Q: What measured Bliss excess is associated with Cc1c2c(nn1C)CSCc1cc(n(C)n1)CSc1cc(c3ccccc3c1)OCCCc1c(C(=O)O)n(C)c3c-2c(Cl)ccc13 [AZD5991] + CC(=O)O[C@H]1C(=O)[C@@]2(C)[C@H]([C@H](OC(=O)c3ccccc3)[C@]3(O)C[C@H](OC(=O)[C@H](O)[C@@H](NC(=O)c4ccccc4)c4ccccc4)C(C)=C1C3(C)C)[C@]1(OC(C)=O)CO[C@@H]1C[C@@H]2O [Paclitaxel] (first compound max 1 µM, 7x7, partner max 3 µM) on TE-15 (Esophageal Squamous Cell Carcinoma)?
A: 0.0224

Q: What measured Bliss excess is associated with CN(CCO)CC[C@H](CSc1ccccc1)Nc1ccc(S(=O)(=O)NC(=O)c2ccc(N3CCC([C@@H](O)c4ccccc4-c4ccc(Cl)cc4)CC3)cc2)cc1S(=O)(=O)C(F)(F)F [AZD4320] + CS(=O)(=O)CCNCc1ccc(-c2ccc3ncnc(Nc4ccc(OCc5cccc(F)c5)c(Cl)c4)c3c2)o1 [Lapatinib] (first compound max 1 µM, 7x7, partner max 10 µM) on TE-15 (Esophageal Squamous Cell Carcinoma)?
A: -0.0004

Q: What measured Bliss excess is associated with CC1(C)CCC(CN2CCN(c3ccc(C(=O)NS(=O)(=O)c4ccc(NCC5CCOCC5)c([N+](=O)[O-])c4)c(Oc4cnc5[nH]ccc5c4)c3)CC2)=C(c2ccc(Cl)cc2)C1 [Venetoclax] + C[C@@H](Nc1cc(F)cc(F)c1)c1cc(C(=O)N(C)C)cc2c(=O)cc(N3CCOCC3)oc12 [AZD8186] (first compound max 1 µM, 7x7, partner max 3 µM) on TE-15 (Esophageal Squamous Cell Carcinoma)?
A: -0.0307
